- MEASURED_TARGET: E3 ubiquitin-protein ligase XIAP (Homo sapiens)
- PROTOCOL_NOTES: small molecules binding XIAP protein – biophysical, small-molecule microarray, fluorescence 635 nm, primary screen (AID 1181);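 note: score merges 667 nm emission and signal to noise over triplicate slides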
- ASSAY_CONDITIONS: higher = more signal
PARAMETER_MEASURED: composite z-score
Note: the reply should be a number with no unit written.

Solved cases (3 shown):
O=C1NC(=O)C2C1C=CC(C(O)c1ccc(B(O)O)cc1)N2Nc1ccc(Cl)cc1Cl (centres undefined) ... 0.0049
COc1cc(CO)cc(I)c1O[C@H]1C=C(C(=O)NCCO)C[C@@H]2O[C@H]12 ... 0.305
CC1CC/C=C\[C@H]2OC34C=CCN(C(C)(C)C)C(=O)[C@H]3N(CCCO)C(=O)[C@@H]4C2C(=O)O1 (some centres undefined) ... -0.02

Moving on to another compound below.
q: Give E3 ubiquitin-protein ligase XIAP (Homo sapiens) composite z-score for the following compound: CC(C)C[C@@H]1NC(=O)[C@@]23C(=O)N[C@@H](Cc4ccccc4)C2[C@H](C)[C@@]2(C)O[C@H]2C3/C=C/C/C=C\CNC(=O)CNC1=O (some centres undefined)
a: -0.105

* * *

# reported z-score; entries follow
- PROTOCOL_NOTES: JC-1 mitochondrial potential readout, lung cancer cells – cell-based, A549, JC-1 fluorescence, basal, 24 h, 100 nL, profiling panel (AID 1138);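 note: A549 lung adenocarcinoma cells under basal conditions with no added stimulus; test concentration not given here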
- ASSAY_CONDITIONS: higher = more signal

Solved cases (4 shown):
COc1ccc([Si](C)(C)[C@H]2[C@H](CC(=O)N3Cc4ccccc4C[C@H]3CO)O[C@@]3(C(=O)N(c4ccccc4)c4ccccc43)[C@@H]2C)cc1 ... 1.78
COc1cc(CO)cc(I)c1O[C@H]1C=C(C(=O)NCCO)C[C@@H](NC2CCCCCC2)[C@@H]1O ... 1.88
CC1=C([C@H](O)CCc2ccccc2)[C@H](CO)n2c(=O)n(-c3ccccc3)c(=O)n2C1 ... 1.18
CCC(CC)C(O)C1C=CC2C(=O)N(c3ccccc3)C(=O)C2N1Nc1ccccc1F (stereo not drawn) ... -0.231

q: Answer with the recorded z-score for the molecule listed here: `O=C(NCc1ccc(F)cc1)[C@H]1C[C@H]2C(=O)N3CCC[C@H]3C(=O)N2[C@H]1c1ccc(O)cc1`
a: -0.0591

q: Answer with the recorded z-score for the molecule listed here: `C=C(COC)C(=O)CC[C@H](OC(=O)c1cccnc1)c1ccc(OCCO)cc1`
a: -0.747

q: Answer with the recorded z-score for the molecule listed here: C=CCC(OC(C)=O)[C@@H]1[C@@H](N(Cc2ccc(-c3cccc(C(F)(F)F)c3)o2)C(=O)Cc2ccc(F)cc2)c2cc(OCCCO)ccc2N1C(=O)Cc1ccc2ccccc2c1 (stereo partly drawn)
a: 0.696

q: Answer with the recorded z-score for the molecule listed here: `C=C(COC)/C(=C/C[C@H](OC(C)=O)c1ccccc1OCCO)c1cc(C(=O)OC)ccc1OC`
a: 0.45

* * *

- PROTOCOL_NOTES: JC-1 mitochondrial potential readout, lung cancer cells – cell-based, A549, JC-1 fluorescence, basal, 24 h, 100 nL, profiling panel (AID 1138);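 note: A549 lung adenocarcinoma cells under basal conditions with no added stimulus; test concentration not given here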
- ASSAY_CONDITIONS: higher = more signal
Threshold rule: z-score greater than or equal to 0.2 is criterion met; below that, criterion not met.

q: Answer whether z-score of CCCCCC1=C2CNC(Cc3ccccc3)(C(=O)OC)C=C2C(C)C1=O (stereo unspecified) is greater than or equal to 0.2.
a: criterion met

q: Answer whether z-score of `COC(=O)[C@@]1(Cc2ccc(OC)cc2)[C@H]2c3cc(C(=O)N4CCCC4)n(Cc4ccc(C(F)(F)F)nc4)c3C[C@H]2CN1C(=O)c1ccccc1` is greater than or equal to 0.2.
a: criterion met

q: Answer whether z-score of CCCCN1CC=CC23O[C@@H]4/C=C\CCCOC(=O)C4[C@H]2C(=O)N(C(CO)C(C)C)[C@@H]3C1=O (stereo partly specified) is greater than or equal to 0.2.
a: criterion not met

q: Answer whether z-score of `COC(=O)C(CC#Cc1ccc2c(c1)[C@]1(C(=O)N2)[C@H](c2ccc(OCCO)cc2)N2[C@H](c3ccccc3)[C@H](c3ccccc3)OC(=O)[C@H]2[C@@H]1C(=O)N1CCCCCCC1)C(=O)OC` is greater than or equal to 0.2.
a: criterion not met

q: Answer whether z-score of CC=CC(O)C1C=CC2C(=O)NC(=O)C2N1Nc1ccc(Cl)cc1Cl (stereo unspecified) is greater than or equal to 0.2.
a: criterion not met

q: Answer whether z-score of CC1CC/C=C\[C@H]2OC34C=CCN(c5ccc(Cl)cc5)C(=O)[C@H]3N(CCCCCCO)C(=O)[C@]4(C)C2C(=O)O1 (stereo partly specified) is greater than or equal to 0.2.
a: criterion met

q: Answer whether z-score of C=C(C)[C@@H]1CC=C(C(O)C2C=CC3C(=O)N(C)C(=O)C3N2Nc2ccc([N+](=O)[O-])cc2[N+](=O)[O-])CC1 (stereo partly specified) is greater than or equal to 0.2.
a: criterion met
